TARGET: DR5-Fc (Homo sapiens (Human)) (UniProt O14763)
Sequence (O14763 56-182 limits assumed): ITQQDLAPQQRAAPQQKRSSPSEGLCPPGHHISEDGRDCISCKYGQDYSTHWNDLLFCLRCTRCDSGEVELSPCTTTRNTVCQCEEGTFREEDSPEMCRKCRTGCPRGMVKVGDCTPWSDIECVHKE
ASSAY SUMMARY: phage ELISA, target-Fc against non-specific control (IgG1-Fc)
OBSERVABLE: ELISA ratio (target to background)
Give the value as a plain number.

// below: answered binders
DBDpp of SEQ ID NO: 31 (designed binder) MGSWHYFKGHLAEIKNHLEALGGSEAELAHFERAIAAFERSLQWYKGKGNPEVEALRKEAAAIRDELQAYRHN | 10.8
DBDpp of SEQ ID NO: 32 (designed binder) MGSWIYFKEHLAYIKKELEALGGSEAELAHFESAIAVFESTLQYYKGKGNPEVEALRKEAAAIRDELQAYRHN | 10.7
DBDpp of SEQ ID NO: 34 (designed binder) MGSWWLFKDHLAEIKTALEALGGSEAELAHFEMAIAAFEKQLQYYKGKGNPEVEALRKEAAAIRDELQAYRHN | 9.75
DBDpp of SEQ ID NO: 29 (designed binder) MGSWFYFKQHLAWIKSYLEALGGSEAELAHFERAIAAFEQHLQMYKGKGNPEVEALRKEAAAIRDELQAYRHN | 11.8

**Q:** Request the reported ELISA ratio (target to background) associated with DBDpp of SEQ ID NO: 30 (designed binder) MGSWHYFKDHLAEIKGLLEALGGSEAELAHFEMAIADFEHNLQYYKGKGNPEVEALRKEAAAIRDELQAYRHN
**A:** 11.4

**Q:** Request the reported ELISA ratio (target to background) associated with DBDpp of SEQ ID NO: 33 (designed binder) MGSWTYFKEHLAEIKYMLEALGGSEAELAHFEVAIADFEKMLQYYKGKGNPEVEALRKEAAAIRDELQAYRHN
**A:** 10.3

**Q:** Request the reported ELISA ratio (target to background) associated with DBDpp of SEQ ID NO: 27 (designed binder) MGSWLYFKEHLAHIKAWLEALGGSEAELAHFELAIADFEYHLQEYKGKGNPEVEALRKEAAAIRDELQAYRHN
**A:** 12.3

**Q:** Request the reported ELISA ratio (target to background) associated with DBDpp of SEQ ID NO: 28 (designed binder) MGSWVYFKEHLAWIKTELEALGGSEAELAHFEHSIADFEMSLQFYKGKGNPEVEALRKEAAAIRDELQAYRHN
**A:** 12.1

**Q:** Request the reported ELISA ratio (target to background) associated with DBDpp of SEQ ID NO: 26 (designed binder) MGSWNYFKDHLAWIKNSLEALGGSEAELAHFETAIASFERQLQEYKGKGNPEVEALRKEAAAIRDELQAYRHN
**A:** 13

This collection of values is drawn from patent US10647775B2.
